Listed compounds paired with reported IC50
# TEST SYSTEM: β5i of hu i-20S (Homo sapiens (Human), UniProt P20618+P28062)
# PROTOCOL DETAILS: IC50 determination against β5i of human immunoproteasome (Ac-ANW-AMC hydrolysis);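 further: enzyme activity taken as the initial reaction velocity per well, with SDS added to activate the proteasome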
# Assay type: biochemical
# TEST SETTINGS: β5i, 0.4 nM i-20S, 15 μM Ac-ANW-AMC
PARAMETER: IC50 (µM)

{"COMPOUND": "O=C1CCc2cccc(c2)Oc2ccc(cc2)C[C@@H](C(=O)NCc2cccc3ccccc23)NC(=O)[C@H](CC(=O)N2CCCC2)N1 (single isomer, unassigned)", "PARAMETER": "IC50", "MODIFIER SIGN": "=", "MEASURED NUMBER": 10.1}
{"COMPOUND": "O=C(CC(F)(F)F)N[C@H]1Cc2cccc(c2)Oc2cccc(c2)C[C@@H](C(=O)NCC(F)(F)F)NC(=O)[C@H](CCc2ccccc2)NC1=O", "PARAMETER": "IC50", "MODIFIER SIGN": ">", "MEASURED NUMBER": 100}
{"COMPOUND": "O=C1CCc2cccc(c2)Oc2ccc(cc2)C[C@@H](C(=O)NCc2ccccc2F)NC(=O)[C@H](CC(=O)N2CCCC2)N1", "PARAMETER": "IC50", "MODIFIER SIGN": "=", "MEASURED NUMBER": 0.845}
{"COMPOUND": "CC(=O)N[C@H]1Cc2cccc(c2)OCCCC[C@@H](C(=O)NCC(F)(F)F)NC(=O)[C@H](CCc2ccccc2)NC1=O", "PARAMETER": "IC50", "MODIFIER SIGN": "=", "MEASURED NUMBER": 5.88}
{"COMPOUND": "CN1C(=O)[C@@H](N2CCCC2=O)Cc2cccc(c2)Oc2cccc(c2)C[C@@H](C(=O)NCC(F)(F)F)NC(=O)[C@@H]1CCc1ccccc1", "PARAMETER": "IC50", "MODIFIER SIGN": "=", "MEASURED NUMBER": 2.72}
{"COMPOUND": "O=C1CCc2cccc(c2)Oc2ccc(cc2)C[C@@H](C(=O)NCc2ccccc2F)NC(=O)[C@H](CC(=O)N2CCC[C@@H]2c2ccccc2)N1", "PARAMETER": "IC50", "MODIFIER SIGN": "=", "MEASURED NUMBER": 6.75}
